Entry source: patent US6844435B2

Parameter: melting point

Some compounds with recorded melting point:
Compound	Parameter	Result
Cn1c(Nc2c(Cl)cccc2Cl)nc2ccc3nc(C4=CC5CN(C(=O)OC(C)(C)C)CC5C4)[nH]c(=O)c3c21 (stereo not drawn) [Example 94]	melting point	210 to 215 °C
Cn1c(Nc2c(Cl)cccc2Cl)nc2ccc3nc(Cc4ccccc4)[nH]c(=O)c3c21 [Example 34]	melting point	> 250 °C (dec.)
CCn1c(Nc2c(Cl)cccc2Cl)nc2ccc3nc[nH]c(=O)c3c21 [Example 5]	melting point	> 300 °C
Cc1ccoc1-c1nc2ccc3nc(Nc4c(Cl)cccc4Cl)n(C)c3c2c(=O)[nH]1 [Example 58]	melting point	304 to 310 °C (dec.)
Cn1c(Nc2c(Cl)cccc2Cl)nc2ccc3nc(-c4csc(CC5CCCNC5)n4)[nH]c(=O)c3c21 (stereo not drawn) [Example 78]	melting point	161 to 166 °C
Cn1c(Nc2c(Cl)cccc2Cl)nc2ccc3nc(-c4cccc(S(=O)(=O)N5CCN(C(=O)CO)CC5)c4)[nH]c(=O)c3c21 [Example 91]	melting point	> 300 °C

Quick one: melting point of Cc1ncc(-c2nc3ccc4nc(Nc5c(Cl)cccc5Cl)n(C)c4c3c(=O)[nH]2)o1 [Example 46] ? > 300 °C

Name the reported melting point value associated with the compound Cn1c(Nc2c(Cl)cccc2Cl)nc2ccc3nc(-c4cccc(S(=O)(=O)N5CCNCC5)c4)[nH]c(=O)c3c21 [Example 68] 210 °C

Given the entry Cn1c(Nc2c(Cl)cccc2Cl)nc2ccc3nc(-c4csc([C@H]5CCCN5C(=O)OCc5ccccc5)n4)[nH]c(=O)c3c21 [Example 73] , report its measured melting point. 209 °C

Consider the compound shown here: Cn1c(Nc2c(Cl)cccc2Cl)nc2ccc3nc(C4=CC(N5CCN(C(=O)OC(C)(C)C)CC5)CC4)[nH]c(=O)c3c21 (stereo not drawn) [Example 65] What is its recorded melting point? 168 to 170 °C

melting point lookup needed for [H]/N=C(/N)c1cccc(/C=C(\C)c2nc3ccc4nc(Nc5c(Cl)cccc5Cl)n(C)c4c3c(=O)[nH]2)c1 [Example 92] , thanks. > 300 °C

* * *

Reported melting point values for a set of compounds

Item under review: `Cn1c(Nc2c(Cl)cccc2Cl)nc2ccc3nc(-c4csc(-c5cccc([N+](=O)[O-])c5)n4)[nH]c(=O)c3c21` . Reported melting point? > 300 °C

Recorded melting point of `Cn1c(Nc2c(Cl)cccc2Cl)nc2ccc3nc(-c4cccc(N)c4)[nH]c(=O)c3c21` , please. 200 °C (dec.)

For the compound `C/C(=C\c1ccccc1[N+](=O)[O-])c1nc2ccc3nc(Nc4c(Cl)cccc4Cl)n(C)c3c2c(=O)[nH]1` , what melting point is on record? 290 to 292 °C

* * *

Here the recorded melting point is given for each entry.

Return reported melting point; argument: `CN1CCN(S(=O)(=O)c2cccc(-c3nc4ccc5nc(Nc6c(Cl)cccc6Cl)n(C)c5c4c(=O)[nH]3)c2)CC1` 215 °C (dec.)

Requested field: melting point. Item: `CC(C)c1nc2ccc3nc(Nc4c(Cl)cccc4Cl)n(C)c3c2c(=O)[nH]1` 279 °C (dec.)

# get_value(readout='melting point', item= `Cn1c(Nc2c(Cl)cccc2Cl)nc2ccc3nc(C4=CC(=O)CC4)[nH]c(=O)c3c21` ) > 300 °C

Fill in: melting point of `Cn1c(Nc2c(Cl)cccc2Cl)nc2ccc3nc(-c4ccccn4)[nH]c(=O)c3c21` is ___ > 300 °C

Can you share its melting point? I mean this molecule: `Cn1c(Nc2c(Cl)cccc2Cl)nc2ccc3nc(C(=O)N4CCCC4)[nH]c(=O)c3c21` 295 °C (dec.)

Sample `C/C(=C\c1cccc(N)c1)c1nc2ccc3nc(Nc4c(Cl)cccc4Cl)n(C)c3c2c(=O)[nH]1` — what was its melting point? > 300 °C (dec.)

Which value of melting point has been reported for `C=C(C)c1nc2ccc3nc(Nc4c(Cl)cccc4Cl)n(C)c3c2c(=O)[nH]1` in the records? > 300 °C

melting point for `CC(C)=C(C)c1nc2ccc3nc(Nc4c(Cl)cccc4Cl)n(C)c3c2c(=O)[nH]1` ? > 300 °C

Consider the molecule `Cn1c(Nc2c(Cl)cccc2Cl)nc2ccc3nc(-c4scc(S(C)(=O)=O)c4Cl)[nH]c(=O)c3c21` and give its measured melting point. 280 °C

Request the reported melting point associated with `Cn1c(Nc2c(Cl)cccc2Cl)nc2ccc3nc(-c4csc(-c5cccc(N)c5)n4)[nH]c(=O)c3c21` 240 °C (dec.)

Item `Cn1c(Nc2c(Cl)cccc2Cl)nc2ccc3nc(-c4cccc(S(=O)(=O)N5CCN(C(=O)OC(C)(C)C)CC5)c4)[nH]c(=O)c3c21` has what recorded melting point? 189 °C

For the molecule shown here, `Cn1c(Nc2c(Cl)cccc2Cl)nc2ccc3nc(C(N)=O)[nH]c(=O)c3c21` , give the reported melting point. > 300 °C

What does the data say about its melting point? Entry: `Cc1nc(-c2nc3ccc4nc(Nc5c(Cl)cccc5Cl)n(C)c4c3c(=O)[nH]2)cs1` 295 °C (dec.)

Name the reported melting point value associated with the molecule `Cn1c(Nc2c(Cl)cccc2Cl)nc2ccc3nc(-c4cccc([N+](=O)[O-])c4)[nH]c(=O)c3c21` > 300 °C

Consider the molecule `Cn1c(Nc2c(Cl)cccc2Cl)nc2ccc3nc(-c4csc([C@H]5CCCN5)n4)[nH]c(=O)c3c21` and give its measured melting point. 290 °C (dec.)

Could you tell me which melting point is on file for `C/C(=C\c1cccc(CN)c1)c1nc2ccc3nc(Nc4c(Cl)cccc4Cl)n(C)c3c2c(=O)[nH]1` ? 197 to 205 °C

I'd like to know its melting point. The molecule in question is `Cn1c(Nc2c(Cl)cccc2Cl)nc2ccc3nc(-c4nc5ccccc5[nH]4)[nH]c(=O)c3c21` > 300 °C

Would you mind telling me what melting point value was observed for `C/C(=C\c1cccc(NC(=N)N)c1)c1nc2ccc3nc(Nc4c(Cl)cccc4Cl)n(C)c3c2c(=O)[nH]1` ? 170 °C (dec.)

Which melting point value belongs to `CCNC(=O)Nc1cccc(-c2nc3ccc4nc(Nc5c(Cl)cccc5Cl)n(C)c4c3c(=O)[nH]2)c1` ? 251 °C (dec.)

Reported melting point, molecule `Cn1c(Nc2c(Cl)cccc2Cl)nc2ccc3nc(-c4ccc(S(=O)(=O)N5CCNCC5)cc4)[nH]c(=O)c3c21` : ____ 246 °C

Entry under review: `C/C(=C\c1cc(N/C(=N\C(=O)OC(C)(C)C)NC(=O)OC(C)(C)C)cc(N/C(=N\C(=O)OC(C)(C)C)NC(=O)OC(C)(C)C)c1)c1nc2ccc3nc(Nc4c(Cl)cccc4Cl)[nH]c3c2c(=O)[nH]1` . Reported melting point? > 300 °C

Dear colleague, I am looking for the recorded melting point of the following molecule: `Cn1c(Nc2c(Cl)cccc2Cl)nc2ccc3nc(C4=CCNC4)[nH]c(=O)c3c21` 240 to 241 °C (dec.)

Consider the molecule shown here: `CC(C)=Cc1nc2ccc3nc(Nc4c(Cl)cccc4Cl)n(C)c3c2c(=O)[nH]1` What is its recorded melting point? > 300 °C

Would you mind telling me what melting point value was observed for `CNc1nc2ccc3nc(Nc4c(Cl)cccc4Cl)n(C)c3c2c(=O)[nH]1` ? 198 to 204 °C

* * *

In this section, each of the compounds is paired with its reported melting point.

Field: example entries. Status: answers known.
Compound	melting point
Cn1c(Nc2c(Cl)cccc2Cl)nc2ccc3nc(C(=O)c4ccccc4)[nH]c(=O)c3c21 [Example 60]	280 °C (dec.)
Cc1ccccc1-c1nc2ccc3nc(Nc4c(Cl)cccc4Cl)n(C)c3c2c(=O)[nH]1 [Example 38]	> 300 °C
Cn1c(Nc2c(Cl)cccc2Cl)nc2ccc3nc(-c4ccc(Br)o4)[nH]c(=O)c3c21 [Example 57]	280 to 283 °C
Cn1c(Nc2c(Cl)cccc2Cl)nc2ccc3nc(CC4=CCCC4)[nH]c(=O)c3c21 [Example 40]	258 °C (dec.)
Cn1c(Nc2c(Cl)cccc2Cl)nc2ccc3nc(-c4nc(-c5ccc(OC(F)(F)F)cc5)no4)[nH]c(=O)c3c21 [Example 32]	> 300 °C

Recorded melting point for CCCCCC1NC(=O)c2c(ccc3nc(Nc4c(Cl)cccc4Cl)n(C)c23)N1C (centres unmarked) [Example 87] , please? 126 to 128 °C

Entry CN1c2ccc3nc(Nc4c(Cl)cccc4Cl)n(C)c3c2C(=O)NC1c1ccccc1 (centres unmarked) [Example 88] : reported melting point = ? 228 to 230 °C

Would you kindly share the measured melting point for Cn1c(Nc2c(Cl)cccc2Cl)nc2ccc3nc(C4CC4)[nH]c(=O)c3c21 [Example 59] ? > 300 °C

* * *

Catalogue of melting point values

Solved entries (count: 3):
Compound	melting point
Cn1c(Nc2c(Cl)cccc2Cl)nc2ccc3nc(C(=O)O)[nH]c(=O)c3c21 [Example 42]	> 300 °C
Cn1c(Nc2c(Cl)cccc2Cl)nc2ccc3nc(-c4cnc(-c5ccccc5)o4)[nH]c(=O)c3c21 [Example 26]	> 290 °C
Cn1c(Nc2c(Cl)cccc2Cl)nc2ccc3nc(-c4cccc(S(=O)(=O)N5CCN(C(=N)N)CC5)c4)[nH]c(=O)c3c21 [Example 90]	215 °C

Please look at the following compound next.
// query melting point value for entry Cn1c(Nc2c(Cl)cccc2Cl)nc2ccc3nc(-c4cc5ccccc5o4)[nH]c(=O)c3c21 [Example 39] > 300 °C
